- Tested on: LOX IMVI melanoma
- Assay procedure: NCI-60 one-dose screen, 48 h (100 = growth as untreated, 0 = no growth, -100 = all killed)
- Conditions used: 10 µM unless noted
Compounds without any hit were thinned out: in the full panel of roughly 83,000, 20% have a hit.
Threshold check on growth: strictly below 50% is 1 (yes); on or above 50% is 0 (no).

Cc1ccc(S(=O)(=O)c2nc(-c3ccc(F)cc3)oc2S(C)(=O)=O)cc1 : 1 (yes)
O=S(=O)(NCCCNc1nccc(-c2[nH]c(-c3ccccc3)nc2-c2ccc(F)c(O)c2)n1)c1ccc(C(F)(F)F)cc1 : 1 (yes)
O=S(=O)(NCCCNc1nccc(-c2[nH]c(-c3ccccc3)nc2-c2ccc(F)c(O)c2)n1)c1cccc2ccccc12 : 1 (yes)
CC1=C(C)C(=O)C(Nc2cccc(C(=O)OC(C)(C)C)c2)=C(Cl)C1=O : 0 (no)
CCOC(=O)C(=O)Nc1ccc2c(ccn2C(=O)c2cccc(F)c2)c1 : 0 (no)
Cn1cc(-c2nn3cc(-c4ccncc4)nc3s2)c2cc(F)ccc21 : 1 (yes)
COc1ccc(-c2cnc(NC(=O)CCCCCCNC(=O)C(O)(O)C(F)(F)F)s2)cc1 : 1 (yes)
C#CCOc1cccc(-c2nc(N)nc(Nc3ccccc3SSc3ccccc3Nc3nc(N)nc(-c4cccc(OCC#C)c4)n3)n2)c1 : 1 (yes)
C#C[C@]1(O)CC[C@H]2[C@@H]3CC=C4c5sc(Nc6ccc(C)cn6)nc5CC[C@]4(C)[C@H]3CC[C@@]21C : 1 (yes)
O=C(/C=C/c1cc(Cl)ccc1Cl)Nc1ncc(Cc2ccc(Cl)cc2)s1 : 1 (yes)
COCCOc1ccc2ncc(C#Cc3cncc(C(=O)Nc4ccc(CN5CCN(C)CC5)c(C(F)(F)F)c4)c3)n2n1 : 1 (yes)
O=c1[nH][nH]c(-c2ccc(F)cc2)c1-c1nc2ccccc2s1 : 0 (no)
Cc1ncn(-c2ccc(/C=N/Nc3ccnc4cc(Cl)ccc34)cc2)c1C : 1 (yes)
NC1=NC2(CCCC2)N(c2ccc(S(=O)(=O)Nc3nccs3)cc2)C(N)=N1 : 0 (no)
Cc1cc(Br)ccc1-n1cc(C#N)c(N)c1C(=O)c1ccc(Br)cc1 : 0 (no)
CC(C)(C)OC(=O)NCc1ccc(CNc2c([N+](=O)[O-])cnc3ccccc23)cc1 : 1 (yes)
COc1ccc(NC2=C(Br)C(=O)C(C)=C(C)C2=O)cc1OC : 0 (no)
CC(C)Sc1nc(-c2ccccc2)c(C#N)c(N2CCOCC2)n1 : 1 (yes)
CCN(CC)c1ccc(/C=N/NC(=O)c2ccc(NS(C)(=O)=O)cc2)cc1 : 1 (yes)

---

- Tested on: PC-3 prostate
- Assay procedure: NCI-60 one-dose screen, 48 h (100 = growth as untreated, 0 = no growth, -100 = all killed)
- Conditions used: 10 µM unless noted
Compounds without any hit were thinned out: in the full panel of roughly 83,000, 20% have a hit.
Result type: growth (%)

FC(F)(F)c1cc(Br)cc(-c2cc(-c3ccc4c(c3)OCCO4)[nH]n2)c1 : 37
CN1CCN(c2ccc(Nc3nc(NCCNS(=O)(=O)c4ccccc4)c4sccc4n3)cc2)CC1 : 95.4
O=C(N/N=C\c1ccc([N+](=O)[O-])cc1)c1ccc2nc(-c3ccc(Br)cc3)[nH]c2c1 : 25
NC(N)=NS(=O)(=O)c1ccc(N=Nc2c(N)nn(-c3ccc([N+](=O)[O-])cc3[N+](=O)[O-])c2N)cc1 : 92.8

---

- System: OVCAR-5 ovarian
- Assay procedure: NCI-60 one-dose screen, 48 h
- Conditions used: 10 µM unless noted
This is part of a sample that, as a whole, favours compounds with a hit. Of some 83,000 tested, about 20% had one in any assay. Calls of active or inactive are those of the source. How the source made its calls: active means growth percent below 10; inactive means the rest.
Outcome codes: active, inactive

Cc1ccc(/C(N)=N/C(N)=N/c2nc3ccccc3s2)cc1 : inactive
C#C[C@]1(O)CC[C@H]2[C@@H]3CC=C4c5sc(Nc6ncccc6C)nc5CC[C@]4(C)[C@H]3CC[C@@]21C : inactive
Cc1cc(C)cc(NC2=C(Cl)C(=O)c3nc(C)ccc3C2=O)c1 : inactive
C#CCN(C)CCCOc1ccc(NCc2ccc(C(=O)NO)cc2)cc1Cl : inactive
C=C(C)[C@@H]1CC[C@]2(C(=O)NC3CCCCC3)CC[C@]3(C)[C@H](CC[C@@H]4[C@@]5(C)CC[C@H](N)C(C)(C)[C@@H]5CC[C@]43C)[C@@H]12 : inactive
Cc1ccsc1[C@H]1c2[nH]c3ccccc3c2C[C@H]2C(=O)N(CCCCCCC(=O)NO)CC(=O)N12 : inactive
COc1ccc([C@H]2C(=O)N(c3cc(OC)c(OC)c(OC)c3)[C@@H]2c2ccc(OC)c(O)c2)cc1 : inactive
CN1CCN(Cc2ccc(NC(=O)c3cncc(C#Cc4cnc5ccc(OC6CCOCC6)nn45)c3)cc2C(F)(F)F)CC1 : active

---

growth values by entry
- System: SN12C renal
- Assay procedure: NCI-60 one-dose screen, 48 h (100 = growth as untreated, 0 = no growth, -100 = all killed)
- Conditions used: 10 µM unless noted
Compounds without any hit were thinned out: in the full panel of roughly 83,000, 20% have a hit. Calls of active or inactive are those of the source. Rule for the calls: active = growth percent below 10; inactive = the rest.
Result type: growth

Brc1ccc(-c2cc(-c3ccc4c(c3)OC=CO4)n[nH]2)s1 : 99.1% (inactive)
CN(C)CCCOc1ccc(C(=C(c2ccccc2)C2CCCC2)c2ccc(OCCCN(C)C)cc2)cc1 : -82.2% (active)
CCC(=C(c1ccc(OCCN(C)C)cc1)c1ccc(OCCN(C)C)cc1)c1ccc(Cl)cc1 : -33.2% (active)
C=C(C)[C@@H]1CC[C@]2(C(=O)O)CC[C@]3(C)[C@H](CC[C@@H]4[C@@]5(C)C/C(=C/c6ccccn6)C(=O)C(C)(C)[C@@H]5CC[C@]43C)[C@@H]12 : 41.1% (inactive)
CN1CCN(Cc2ccc(NC(=O)c3cncc(C#Cc4cnc5ccc(NCCO)nn45)c3)cc2C(F)(F)F)CC1 : 1.09% (active)
O=C1[C@H]2Cc3c([nH]c4ccccc34)[C@H](c3ccc(Br)cc3)N2C(=O)CN1C1CCN(CC2CCCCC2)CC1 : 73.7% (inactive)
Oc1[nH]c2ccc(Cl)cc2c1N=Nc1nc(N=Nc2c(O)[nH]c3ccc(Cl)cc23)nc(N2CCOCC2)n1 : 43.9% (inactive)
N#C/C(=C\c1ccc(-c2ccc(Cl)cc2)o1)C(=O)Nc1ncc(Cc2ccc(Br)cc2)s1 : -29.9% (active)

---

growth values by entry
- Tested on: HCT-15 colon
- Assay procedure: NCI-60 one-dose screen, 48 h (100 = growth as untreated, 0 = no growth, -100 = all killed)
- Conditions used: 10 µM unless noted
Compounds without any hit were thinned out: in the full panel of roughly 83,000, 20% have a hit.
Result type: growth (%)

CSc1ccc(C(=NNS(=O)(=O)c2ccc(C)cc2)c2ccc(Cl)cc2)cc1 : 101
COC(=O)CNC(=O)c1cccc(-c2cc(=O)c3c(OC)c(OC)c(OC)cc3o2)c1 : 96
CN1CCN(Cc2ccc(NC(=O)c3cncc(C#Cc4cnc5ccc(OC6CCOCC6)nn45)c3)cc2C(F)(F)F)CC1 : -66.4
Cn1c(SCC(=O)c2ccco2)nc2ccccc2c1=O : 84.9
CCCCc1nc2c(N)nc3ccccc3c2n1Cc1cccc(CN)c1 : 55.9
C#C[C@]1(O)CC[C@H]2[C@@H]3CC=C4c5sc(Nc6cc(C)cc(C)c6)nc5CC[C@]4(C)[C@H]3CC[C@@]21C : -37.1
CC1CCN(CC(=O)Nn2c(COc3ccccc3)nc3ccccc3c2=O)CC1 : 56
O=C(CSc1nc2ccccc2c(=O)n1-c1ccc(S(=O)(=O)Nc2ccc(Cl)nn2)cc1)Nc1ccc(S(=O)(=O)Nc2ccc(Cl)nn2)cc1 : 100
C#CCOc1ccccc1C(OC(=O)c1ccccc1)C(=O)NC(C)(C)C(C)(C)C (centres undefined) : 78.3
CCc1cc2c(cc1Cl)nc1c(=O)[nH]c(=O)nc-1n2CCOCC(C)(C)C : 58.3
Cc1ccc(C(=O)Nc2ccc(CNCCN3CCOCC3)c(C(F)(F)F)c2)cc1C#Cc1cnc2cccnn12 : 7.26
CN1CCN(CCCCCC(=O)Nc2nc(-c3cccc(NS(=O)(=O)c4cccc5c(N(C)C)cccc45)c3)cs2)CC1 : 23.1
COc1cc(/C=C2/C(=O)Nc3ccc(Cl)cc32)ccc1OCc1ccc(Cl)cc1 : 86.5
O=C(CCCCCCNC(=O)C(O)(O)C(F)(F)F)Nc1ncc(-c2ccc(Br)cc2)s1 : 3.85
C#CCN(C)CCCOc1ccc(NC(=O)CCCCCCC(=O)NO)cc1Cl : 64.9
Cc1cc2nc(C(Cl)Cl)nc(-c3ccc(S(=O)(=O)N(C)C)cc3)n2n1 : 5.58
O=c1c2cc(-c3ccc(F)cc3F)ccc2n(O)c(=O)n1-c1cccc(C(F)(F)F)c1 : 10.5
C(=N\Nc1nc(N/N=C/c2ccc3c(c2)OCO3)nc(N2CCCCC2)n1)/c1ccc2c(c1)OCO2 : 33.8
Cc1ccccc1NC(=O)Nc1nc2ccc([N+](=O)[O-])cc2s1 : 12.1
